measurementType: melting point

Worked cases, answers included:
[[record]]
molecule = "CC1=C(C(O)c2ccc(Br)cc2)C(=O)c2ccccc2C1=O (stereo not drawn)"
reading = "61 to 62 °C"

[[record]]
molecule = "CC1=C(C(=O)c2ccc(C(=O)O)cc2)C(=O)C2C=CC=CC2C1=O (stereo not drawn)"
reading = "201 °C (dec.)"

[[record]]
molecule = "COc1ccc(OC)c(CC2=C(C)C(=O)C3C=CC=CC3C2=O)c1 (stereo not drawn)"
reading = "140 to 142 °C"

[[record]]
molecule = "COc1ccccc1C(=O)C1=C(C)C(=O)C2C=CC=CC2C1=O (stereo not drawn)"
reading = "146 to 147 °C"

[[record]]
molecule = "CC1=C(Cc2ccc(C(C)(C)C)cc2)C(=O)C2C=CC=CC2C1=O (stereo not drawn)"
reading = "60 to 61 °C"

[[record]]
molecule = "CC1=C(Cc2ccc(Br)cc2)C(=O)C2C(O)=CC=CC2C1=O (stereo not drawn)"
reading = "163 to 164 °C"

[[record]]
molecule = "CC1=C(Cc2ccc([N+](=O)[O-])cc2)C(=O)C2C=CC=CC2C1=O (stereo not drawn)"
reading = "156 to 157 °C"

[[record]]
molecule = "CC1=C(Cc2ccc(F)cc2)C(=O)C2C=CC=CC2C1=O (stereo not drawn)"
reading = "118 to 119 °C"


*Q* Quick check: melting point of `O=C1C=C(C(F)F)C(=O)c2ccccc21` ?
*A* 74 °C

*Q* And the next one, CC1=C(Cc2ccc(Cl)cc2)C(=O)C2C=CC=CC2C1=O (stereo not drawn) ?
*A* 134 to 135 °C

*Q* And the next one, COc1c(C)c(C(O)c2ccc(Br)cc2)c(OC)c2ccccc12 (stereo not drawn) ?
*A* 67 to 68 °C

*Q* And the next one, CC1=C(C(=O)c2ccc(Br)cc2)C(=O)C2C=CC=CC2C1=O (stereo not drawn) ?
*A* 170 to 171 °C
